# Tested on: RXRa homodimer (NR concentration 180 nM)
# assayOverview: PBM binding z-score (relative to random genomic background probes); higher = stronger binding; sequences stand for … in GC…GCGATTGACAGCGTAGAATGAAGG
Kind request: treat 3 as inclusive, so PBM binding z-score at 3 or higher is 1, anything lower is 0.

>  <sequenceCode>
AGAATGAGGTTACTAAAGATCAGGGAAACGCTTG

>  <categoryLabel>
0

$$$$
>  <sequenceCode>
TAGCCTAGGTTATGGGCCAGTATACCACGCGAAC

>  <categoryLabel>
0

$$$$
>  <sequenceCode>
ATATGTAGGTTACCTGGGGTCATTCAGACTAGGC

>  <categoryLabel>
1

$$$$
>  <sequenceCode>
AACGAAAGGTCGAAGGTGAGTATACCCACCCGAA

>  <categoryLabel>
1

$$$$
>  <sequenceCode>
AATACAGGGTGACTAGGCCAGAGTAGGTACGAAT

>  <categoryLabel>
0

$$$$
>  <sequenceCode>
CCTACTCGGCCAAAAAGGTCATTGATGCCGATAA

>  <categoryLabel>
1

$$$$
>  <sequenceCode>
CTATGTAGGTTACGGGGGTCATTCAGTTTGAAAG

>  <categoryLabel>
1

$$$$
>  <sequenceCode>
CGAACTAGGTCTAAGGACAGTGAAAGGCGACGTA

>  <categoryLabel>
0

$$$$
>  <sequenceCode>
TCTTGTAGATCGATAGAGGTTAAGAAAGTGCGCT

>  <categoryLabel>
0

$$$$
>  <sequenceCode>
ATATGTAGGTTAACTGGGGTCATTCAGACTAGGC

>  <categoryLabel>
1

$$$$
>  <sequenceCode>
AGAATGGGGTTATACGTAGATCAGGGAAGAAAGT

>  <categoryLabel>
1

$$$$
>  <sequenceCode>
ACTAGTTGGTCAGCTGAGGTCACACCCAATTCGG

>  <categoryLabel>
1

$$$$
>  <sequenceCode>
CCAACTGGGCCAAAAAGGTCATTGATGCCGATAA

>  <categoryLabel>
1

$$$$
>  <sequenceCode>
CGTCCAAGGACAATGCTAGGTCAGTGAAAGCATT

>  <categoryLabel>
0

$$$$
>  <sequenceCode>
CGAACTACGTCATCCAGGACAGTGAATACATTGA

>  <categoryLabel>
0

$$$$
>  <sequenceCode>
TCTAGTTGGTCACGGAGGTCCCACACGACGGGTA

>  <categoryLabel>
0

$$$$
>  <sequenceCode>
TGTCAATGTTCAAAGGTAACGTAAGTATCCACAC

>  <categoryLabel>
0

$$$$
>  <sequenceCode>
GCTGCGAGGTCAACTGATGGTCAGCTAAAGCTCG

>  <categoryLabel>
1

$$$$
>  <sequenceCode>
CGAACTAGGTCATCCAGGTCAGTGAATACATTGA

>  <categoryLabel>
1

$$$$
>  <sequenceCode>
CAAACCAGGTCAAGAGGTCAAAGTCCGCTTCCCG

>  <categoryLabel>
1

$$$$
>  <sequenceCode>
CTATGTAGGTTAAGGGAGTCATTCAGTTTGAAAG

>  <categoryLabel>
0

$$$$
>  <sequenceCode>
CGAACAAGGTCACCAGGACAGTGAAGAGGTTGGA

>  <categoryLabel>
1

$$$$
>  <sequenceCode>
CGTTCAAGGTCAAAGGTCAGTGAAGAGATGACGG

>  <categoryLabel>
1

$$$$
>  <sequenceCode>
GCTTACAGGTCAAAGGTTATAGCATGAATAGAAT

>  <categoryLabel>
1

$$$$
>  <sequenceCode>
ACTCGGATGACAAAGGTCAGAGCTACGCCAGTGA

>  <categoryLabel>
1

$$$$
>  <sequenceCode>
CCTTACGGGTAACGAGGTTATAGCACGACGAGCG

>  <categoryLabel>
0

$$$$
>  <sequenceCode>
GCTGCTAGGTCAACTGATGGCCAGCTAAAGCTCG

>  <categoryLabel>
0

$$$$
>  <sequenceCode>
ATATGTAGGTTAGCTGGGGTCCTTCAGACTAGGC

>  <categoryLabel>
0

$$$$
>  <sequenceCode>
CAAAATAGGTCACAGAGGTCAAAGTCCGTGCGTA

>  <categoryLabel>
1

$$$$
>  <sequenceCode>
CGTACAAGGTCAAAGGTCAGTGAAGAGATGACGG

>  <categoryLabel>
1

$$$$
>  <sequenceCode>
CCTAGCAGGCCAATCTAGGTCACTCAAGGCTTGA

>  <categoryLabel>
0

$$$$
>  <sequenceCode>
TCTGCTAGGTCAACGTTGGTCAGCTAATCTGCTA

>  <categoryLabel>
0

$$$$
>  <sequenceCode>
TATTCAGGGTCAAAGGCCAGAGTACGAATGTCGA

>  <categoryLabel>
1

$$$$
>  <sequenceCode>
CTACCAAGGTCAACAAGGTCGTTGATTACTATTC

>  <categoryLabel>
1

$$$$
>  <sequenceCode>
AGTCAAAGTTCATCTAGGTAACATAAGATATGCT

>  <categoryLabel>
1

$$$$
>  <sequenceCode>
TCGCCTAGGTCATGGGCCAGTATACCACGCGAAC

>  <categoryLabel>
1

$$$$
>  <sequenceCode>
TCGTGTAGGTTACGGGGGCATTCAGGGATGAAGA

>  <categoryLabel>
1

$$$$
>  <sequenceCode>
CCGAGAAGGTTACGAGGGGGCATTCAGTGCGAAT

>  <categoryLabel>
1

$$$$
>  <sequenceCode>
CCAGACAGGTGAGAAGGTAACTCAGCCTCGATTA

>  <categoryLabel>
0

$$$$
>  <sequenceCode>
ATCGAAAGGTCCACGAGGTGAGTATACACCGTTT

>  <categoryLabel>
0

$$$$
>  <sequenceCode>
TATACAAGGTCAAAGGCCAGAGTACGAATGTCGA

>  <categoryLabel>
1

$$$$
>  <sequenceCode>
AGAATGAGGTCACCAAAGATCAGGGAAACGCTTG

>  <categoryLabel>
1

$$$$
>  <sequenceCode>
AGAATGAGATTACCAAAGATCAGGGAAACGCTTG

>  <categoryLabel>
0

$$$$
>  <sequenceCode>
GCATATAGGTAATACAAGGTCAAAGTCCGATTGT

>  <categoryLabel>
1

$$$$
>  <sequenceCode>
CGTCCAAGGTCAAGGTCAATGAAAGAGACTCGAA

>  <categoryLabel>
1

$$$$
>  <sequenceCode>
CGAACTAGGTCAAGGGACAGTGAAAGGCGACGTA

>  <categoryLabel>
0

$$$$
>  <sequenceCode>
CGTCAAAGTTCAACTAAGGTTACGTAAAGCACGC

>  <categoryLabel>
1

$$$$
>  <sequenceCode>
CACACTAGGTCACAGAGGTCAAAGTCCGTGCGTA

>  <categoryLabel>
1

$$$$
>  <sequenceCode>
CCGAGGAGGTTACGAGGGGGCATTCAGTGCGAAT

>  <categoryLabel>
1

$$$$
